Experimental System: CAL PDZ domain (CALP5-His) (Homo sapiens)
Construct: His
Test Details: Direct fluorescence polarization binding of labeled peptide, Condition C
Study Conditions: FITC-labeled peptide, FP; read-out: Affinity (KD)
Where a SMILES comes first, the peptide text is derived from it. [ ]: non-standard residue; d: D form. The star is where a group is joined. X1 = O=C(O)c1cc(NC(=S)*)ccc1C1c2ccc(O)cc2Oc2cc(O)ccc21; 2Nal = N[C@@H](Cc1ccc2ccccc2c1)C(=O)O; Bta = N[C@@H](Cc1csc2ccccc12)C(=O)O; Pen = CC(C)(S)[C@H](N)C(=O)O; Tle = CC(C)(C)[C@H](N)C(=O)O; Pip = O=C(O)[C@@H]1CCCCN1; AEEA = NCCOCCOCC(=O)O
Quantity Measured: pKd
Field pKd (float): negative decimal logarithm of the concentration in molar.

[[record]]
compound = "CC(=O)N[C@@H](CS)C(=O)N[C@H](CCCNC(=N)N)C(=O)N[C@@H](CCCNC(=N)N)C(=O)N[C@@H](CCCNC(=N)N)C(=O)N[C@@H](Cc1ccc2ccccc2c1)C(=O)N[C@@H](Cc1csc2ccccc12)C(=O)N1CCCC[C@H]1C(=O)N[C@H](C(=O)N[C@H](C(=O)N[C@@H](CCCNC(=N)N)C(=O)N[C@H](C(=O)O)C(C)(C)C)[C@@H](C)O)C(C)(C)S [Compound 29] (Ac-C[dR]RR[2Nal][Bta][Pip][Pen]TR[Tle]-OH)"
recorded_number = 8.22


// next item, pKd requested
// fetch pKd given entry C[C@@H](O)[C@H](NC(=O)[C@@H](NC(=O)[C@@H]1CCCCN1C(=O)[C@H](Cc1csc2ccccc12)NC(=O)[C@H](Cc1ccc2ccccc2c1)NC(=O)[C@H](CCCNC(=N)N)NC(=O)[C@H](CCCNC(=N)N)NC(=O)[C@@H](CCCNC(=N)N)NC(=O)[C@H](CS)NC(=O)COCCOCCNC(=S)Nc1ccc(C2c3ccc(O)cc3Oc3cc(O)ccc32)c(C(=O)O)c1)C(C)(C)S)C(=O)N[C@@H](CCCNC(=N)N)C(=O)N[C@H](C(=O)O)C(C)(C)C [Compound 29-FITC] ({X1-AEEA}-C[dR]RR[2Nal][Bta][Pip][Pen]TR[Tle]-OH) 8.22

---

Below, each of the molecules is paired with its reported Uptake (% rel.) value.
Tested on: HeLa cells
Test Details: Cellular uptake efficiency by flow cytometry
Format: cell-based
Study Conditions: HeLa cells, 5 μM, 2 h; relative to CPP9 (100%)
Where a SMILES comes first, the peptide text is derived from it. [ ]: non-standard residue; d: D form. 2Nal = N[C@@H](Cc1ccc2ccccc2c1)C(=O)O; Bta = N[C@@H](Cc1csc2ccccc12)C(=O)O; Pen = CC(C)(S)[C@H](N)C(=O)O; Tle = CC(C)(C)[C@H](N)C(=O)O
API: value field is a number in %; no unit string.

Worked examples, 3 molecules total:
[[record]]
molecule = "CC(=O)N[C@@H](CS)C(=O)N[C@H](CCCNC(=N)N)C(=O)N[C@H](CCCNC(=N)N)C(=O)N[C@@H](CCCNC(=N)N)C(=O)N[C@@H](Cc1ccc2ccccc2c1)C(=O)N[C@@H](Cc1c[nH]c2ccccc12)C(=O)N[C@@H](CCC(N)=O)C(=O)N[C@H](C(=O)N[C@H](C(=O)N[C@@H](CCCNC(=N)N)C(=O)N[C@H](C(=O)O)C(C)(C)C)[C@@H](C)O)C(C)(C)S [Compound 21] (Ac-C[dR][dR]R[2Nal]WQ[Pen]TR[Tle]-OH)"
experimental_system = "HeLa cells"
recorded_number = 23

[[record]]
molecule = "CC(=O)N[C@@H](CS)C(=O)N[C@H](CCCNC(=N)N)C(=O)N[C@@H](CCCNC(=N)N)C(=O)N[C@@H](CCCNC(=N)N)C(=O)N[C@@H](Cc1ccc2ccccc2c1)C(=O)N[C@@H](Cc1c[nH]c2ccccc12)C(=O)N[C@H](C(=O)N[C@H](C(=O)N[C@H](C(=O)N[C@@H](CCCNC(=N)N)C(=O)N[C@H](C(=O)O)C(C)(C)C)[C@@H](C)O)C(C)(C)C)C(C)(C)S [Compound 24] (Ac-C[dR]RR[2Nal]W[Pen][Tle]TR[Tle]-OH)"
experimental_system = "HeLa cells"
recorded_number = 92

[[record]]
molecule = "CC(=O)N[C@@H](CS)C(=O)N[C@H](CCCNC(=N)N)C(=O)N[C@@H](CCCNC(=N)N)C(=O)N[C@@H](CCCNC(=N)N)C(=O)N[C@@H](Cc1ccc2ccccc2c1)C(=O)N[C@@H](Cc1c[nH]c2ccccc12)C(=O)N[C@@H](CCC(N)=O)C(=O)N[C@H](C(=O)N[C@H](C(=O)N[C@@H](CCCNC(=N)N)C(=O)N[C@H](C(=O)O)C(C)(C)C)[C@@H](C)O)C(C)(C)S [Compound 20] (Ac-C[dR]RR[2Nal]WQ[Pen]TR[Tle]-OH)"
experimental_system = "HeLa cells"
recorded_number = 28


// fetch Uptake (% rel.) given entry CC(=O)N[C@@H](CS)C(=O)N[C@@H](CCCNC(=N)N)C(=O)N[C@H](CCCNC(=N)N)C(=O)N[C@@H](CCCNC(=N)N)C(=O)N[C@@H](Cc1ccc2ccccc2c1)C(=O)N[C@@H](Cc1c[nH]c2ccccc12)C(=O)N[C@@H](CCC(N)=O)C(=O)N[C@H](C(=O)N[C@H](C(=O)N[C@@H](CCCNC(=N)N)C(=O)N[C@H](C(=O)O)C(C)(C)C)[C@@H](C)O)C(C)(C)S [Compound 22] (Ac-CR[dR]R[2Nal]WQ[Pen]TR[Tle]-OH) 17

// fetch Uptake (% rel.) given entry CC(=O)N[C@@H](CS)C(=O)N[C@H](CCCNC(=N)N)C(=O)N[C@@H](CCCNC(=N)N)C(=O)N[C@@H](CCCNC(=N)N)C(=O)N[C@@H](Cc1ccc2ccccc2c1)C(=O)N[C@@H](Cc1csc2ccccc12)C(=O)N[C@H](C(=O)N[C@H](C(=O)N[C@H](C(=O)N[C@@H](CCCNC(=N)N)C(=O)N[C@H](C(=O)O)C(C)(C)C)[C@@H](C)O)C(C)(C)C)C(C)(C)S [Compound 25] (Ac-C[dR]RR[2Nal][Bta][Pen][Tle]TR[Tle]-OH) 518

---

Experimental System: CAL PDZ domain (CALP5-His) (Homo sapiens, UniProt Q9HD26)
Construct: His
Test Details: Direct fluorescence polarization binding of labeled peptide, Condition C
Study Conditions: FITC-labeled peptide, FP; read-out: Affinity (KD)
Where a SMILES comes first, the peptide text is derived from it. [ ]: non-standard residue; d: D form. 2Nal = N[C@@H](Cc1ccc2ccccc2c1)C(=O)O; Pen = CC(C)(S)[C@H](N)C(=O)O; Tle = CC(C)(C)[C@H](N)C(=O)O
Quantity Measured: Kd (nM)
API: value field is a number in nM; no unit string.

// fetch Kd given entry CC(=O)N[C@@H](CS)C(=O)N[C@H](CCCNC(=N)N)C(=O)N[C@@H](CCCNC(=N)N)C(=O)N[C@@H](CCCNC(=N)N)C(=O)N[C@@H](Cc1ccc2ccccc2c1)C(=O)N[C@@H](Cc1c[nH]c2ccccc12)C(=O)N1CCC[C@H]1C(=O)N[C@H](C(=O)N[C@H](C(=O)N[C@@H](CCCNC(=N)N)C(=O)N[C@H](C(=O)O)C(C)(C)C)[C@@H](C)O)C(C)(C)S [Compound 27] (Ac-C[dR]RR[2Nal]WP[Pen]TR[Tle]-OH) 179
